Source: the OligoGym collection

# system: ANXA11
# measurement_description: pooled miR-30 sensor sort-seq; sequence = guide strand; also: reference of the scale not given here
# condition_set: shRNA
metric_name: sensor-assay potency score (higher = more potent)
Give only the figure.

Return reported sensor-assay potency score (higher = more potent); argument: "TCTTGAGACATTTCACCACGGC" -0.11

Please answer likewise for "TTGAACTGCCCCGCATAGGTGG" -0.724

Could you do the same for "TTGAACTTGGACTCGTCTGTTC" , please? -0.177

Next entry: "TAAATGTCAAAGAGGACTGGGG" -0.276

Further, for "TCTAGGACGGTGAATCTCGGGG" ? -0.586

***
What sensor-assay potency score (higher = more potent) value was documented for this sequence, "TCTGATGTCCAGGAGGTCGGTC" ? -0.593

Also need "TTTAATTCTCGGATGTGCTCAT" , thanks. 0.906

What do we get for "TCCGCTTATACTCTGATCTGAT" ? -0.656

What do you get for "TATTTTAGCAGCAAGAGGCTGT" ? 0.315

Repeat with "TAGGATCTGCTGCCGCTGCTTG" -0.946

###

# system: MUL1
# measurement_description: pooled miR-30 sensor sort-seq; sequence = guide strand
# condition_set: shRNA
metric_name: sensor-assay potency score (higher = more potent)
// no unit string in output, number only

Please look up its sensor-assay potency score (higher = more potent): "TTAGATAGTACTGCATGCCTTG" -0.152

Repeat for the following sequence: "TACTCTTTAAATCTTCACCCAA" -0.305

Further, for "TTCTATAACAGCATAAGGCACG" ? -0.579

Repeat for the following sequence: "TTGCAGTTTTCCACAAACTGGC" -0.401

Similarly, "TATAACAGCATAAGGCACGCAT" ? -0.0376

Repeat with "TTTAGCTCCCTTGAGCTCTTGG" -0.00208

Next:
Could you tell me which sensor-assay potency score (higher = more potent) is on file for "TTTCTTTAACAGACCGCACAGC" ? -0.894

###

# system: MYL4
# measurement_description: pooled miR-30 sensor sort-seq; sequence = guide strand
# condition_set: shRNA
Binary classification by sensor-assay potency score (higher = more potent), with -0.3 as an inclusive lower bound for T; all other cases are F.

Assess whether reported sensor-assay potency score (higher = more potent) for "TGAACTCTTCAATCTGGTCGGC" sits at -0.3 or higher. T

Proceed to "ATCTTCATCTCTCCAGTCGGGG" F

Param item: "TCTTGACATTCATCTCTTCAGG" F

Same question for "TCTATCTTTACACTCTTGGGGT" please. T

And then "TATCTTTACACTCTTGGGGTCA" , what is it? F

###

# system: CASK
# measurement_description: pooled miR-30 sensor sort-seq; sequence = guide strand
# condition_set: shRNA
metric_name: sensor-assay potency score (higher = more potent)
// return just the number, without any unit appended

Known results for sequences:
Value wanted: sensor-assay potency score (higher = more potent) (CASK) of entry "TAAGATGTCAGACTCCTTCTGC" 0.313

One more sequence: "ATTTGTGACTTGACACAGCGGC" 0.473

And the next one, "TAAAATACGCTTTAGTTCCTTT" ? -0.108

Follow-up entry: "TTACATAGATCTGTCGTCCTTT" 0.751

Next item in the queue.
# value lookup — system CASK, readout sensor-assay potency score (higher = more potent), item "TACATCGTCGTACAACACTGAA" -1.22

###

# system: C6orf118
# measurement_description: pooled miR-30 sensor sort-seq; sequence = guide strand
# condition_set: shRNA
Rule: sensor-assay potency score (higher = more potent) of 0.4 or more gives Met; anything lower gives Not met.

Record excerpt, results attached:
Form field: sensor-assay potency score (higher = more potent) at least 0.4? Entry: "TGAAATTCCAGTATGAACCAAA" Not met

Request: "TTGCTTGGCGAGCACTTCCTTC" Not met

Next record, please: "TTAAGAACTAGTATTGTTGTAA" Met

Same for "TTACACAGGGTCTTCACTCCTG" Met

What about "TTCAGGTACCTGAACAGCGGGG" ? Not met

Here is the next item to consider.
Please check the record "TATGTTTCTCAGATGATTCTGA" and state if its sensor-assay potency score (higher = more potent) is at or above 0.4. Met

###

# system: CLN5
# measurement_description: pooled miR-30 sensor sort-seq; sequence = guide strand
# condition_set: shRNA
Listing of recorded sensor-assay potency score (higher = more potent) by entry.
Number only, no unit.

Solved cases (5 shown):
Entry under review: "TTGACAATAAGGATCAGGTTTT" . Reported sensor-assay potency score (higher = more potent)? -0.121

Now consider "TTTAACTTTATGCACCAAGGAA" and answer again. -0.689

Another: "TTTCCTTCCAGTGAACATCATC" -0.843

Next: "TTTCTATGTTCTTGAACTCTGC" -0.7

Try this sequence too: "TAGGTAAAAACCAATATTCAAA" -1.15

***
What value of sensor-assay potency score (higher = more potent) has been recorded for this entry: "TTGCCAGTTAATGTACTTCTGA" -0.714

Please do the same for "TTCATTGTCCTGTTTCACCCAC" as well. 0.245

Request: "TTCAATGTCATCATCACCCTCC" 0.818

Another sequence to check: "TTATAAAACAAATAGAACTGTT" -0.281

Record: "TTCTTGTATAGTTGGTTTCTAT" -0.695

Field entry: "TAGCTTGACAATAAGGATCAGG" -0.401

###

# system: HOXA6
# measurement_description: pooled miR-30 sensor sort-seq; sequence = guide strand
# condition_set: shRNA
Recorded sensor-assay potency score (higher = more potent) values for a group of sequences are listed next.
Hey, just send me the number, nothing else.

Look over these answered cases.
Please report the recorded sensor-assay potency score (higher = more potent) for "TTGGTAGAAACAAGGTGAGGTG" . -0.106

Next entry: "TGTTGGTAGAAACAAGGTGAGG" -1.56

Now consider "TTATCAGAATAGAAACACGAGG" . -1.05

How about this sequence: "TTGTACTGCTGCTCGGGAGAAA" -0.818

Also "TTGATGAGCTTGTTTTCCTTTT" , if possible. -0.78

One more sequence: "TTGGACTGTTGGTAGAAACAAG" -1.21

New cases:
I am curious: what sensor-assay potency score (higher = more potent) value has been reported for "TGTACTTCCGGTCGGCGCCTTC" ? -0.845

###

# system: PCDH11X
# measurement_description: pooled miR-30 sensor sort-seq; sequence = guide strand
# condition_set: shRNA
Measured sensor-assay potency score (higher = more potent) values are reported for all entries that follow.
No unit in the answer, please; the number alone is enough.

Fill in: sensor-assay potency score (higher = more potent) of "TTGATCTTAGCATTAGGCCCAC" is ___ -0.682

Request: "TTAAGCAGCAAGTTCTTAGGGG" 0.683

Others:
Would you mind telling me what sensor-assay potency score (higher = more potent) value was observed for "TTGTAGGACTACATACATCATA" ? -0.797

What do you have for "AATAGTGACAAAATTAAGCAGC" ? -0.804

Repeat with "TTTTCTGGCATTTCTTCTCGGA" -0.435

Next entry: "TGTATCAGTAACACTCACTTGC" 0.683

Now try "TTTACTTTCATCACGTAGGTAT" . 0.803

###

# system: FBXO8
# measurement_description: pooled miR-30 sensor sort-seq; sequence = guide strand
# condition_set: shRNA
Form field: sensor-assay potency score (higher = more potent) (one value per entry).

Which value of sensor-assay potency score (higher = more potent) has been reported for "TTTATCATTCGTTAACAGCTGT" in the records? 0.355

What do we get for "TTCCTTTGGCGAATCATCCAGG" ? -0.484

Next entry: "TTGCTCACTGTAGCCTTCTTGT" -1.19

# repeat for "TTGCTCGCAGCCATTCTCCTGC" -0.359

What do you have for "TTAGTCTGAAGTAAAAACTGAA" ? -0.599

Now consider the entry below.
Please give the measured sensor-assay potency score (higher = more potent) for this sequence: "TTGTACAGAAGATAAACTTTGC" -0.385

###

# system: TMEM218
# measurement_description: pooled miR-30 sensor sort-seq; sequence = guide strand
# condition_set: shRNA
Threshold rule: sensor-assay potency score (higher = more potent) greater than or equal to -0.6 is Criterion met; below that, Criterion not met.

Say whether "ATGTGATGATCACAGCACCGAA" shows sensor-assay potency score (higher = more potent) of -0.6 or more. Criterion not met

Do the same for "TAACTTCCACTTCTGGGGCTGG" please Criterion met

What do you get for "ATCCACAATCTTAACTTCCACT" ? Criterion not met

Would you mind doing "TCTTAACTTCCACTTCTGGGGC" as well? Criterion not met

Others:
Threshold query (sensor-assay potency score (higher = more potent) >= -0.6) on "AACATAATGGATTAAAACCAAG" Criterion not met
